Source: patent US20240199605A1

tgt: recombinant human NF-kappaB-inducing kinase (NIK/MAP3K14) (Homo sapiens (Human))
measurementDescription: Inhibition of auto-phosphorylation of recombinant human NIK/MAP3K14 (AlphaScreen)
measurementConditions: NIK auto-phosphorylation, 5 μM ATP, 1 nM NIK, 2 h at 25° C.; average of values
outcomeMeasure: IC50 (nM)

P: Cc1nc(N)c2nc(-c3cccc(C#C[C@@](C)(O)c4cnc(C)s4)c3)ccc2n1 [Example 158]
Q: CN1CC[C@@](O)(C#Cc2cccc(-c3nc4c(N)ncnc4n3C)c2)C1=O [Example 143]
Enquiry: Thinking about recorded IC50 values, which is higher, P or Q ? // respond with label for picked entry
Return: P
(P: 1930 nM, Q: 420 nM)

---

tgt: recombinant human NF-kappaB-inducing kinase (NIK/MAP3K14) (Homo sapiens (Human), UniProt Q99558)
Sequence (Q99558 whole entry): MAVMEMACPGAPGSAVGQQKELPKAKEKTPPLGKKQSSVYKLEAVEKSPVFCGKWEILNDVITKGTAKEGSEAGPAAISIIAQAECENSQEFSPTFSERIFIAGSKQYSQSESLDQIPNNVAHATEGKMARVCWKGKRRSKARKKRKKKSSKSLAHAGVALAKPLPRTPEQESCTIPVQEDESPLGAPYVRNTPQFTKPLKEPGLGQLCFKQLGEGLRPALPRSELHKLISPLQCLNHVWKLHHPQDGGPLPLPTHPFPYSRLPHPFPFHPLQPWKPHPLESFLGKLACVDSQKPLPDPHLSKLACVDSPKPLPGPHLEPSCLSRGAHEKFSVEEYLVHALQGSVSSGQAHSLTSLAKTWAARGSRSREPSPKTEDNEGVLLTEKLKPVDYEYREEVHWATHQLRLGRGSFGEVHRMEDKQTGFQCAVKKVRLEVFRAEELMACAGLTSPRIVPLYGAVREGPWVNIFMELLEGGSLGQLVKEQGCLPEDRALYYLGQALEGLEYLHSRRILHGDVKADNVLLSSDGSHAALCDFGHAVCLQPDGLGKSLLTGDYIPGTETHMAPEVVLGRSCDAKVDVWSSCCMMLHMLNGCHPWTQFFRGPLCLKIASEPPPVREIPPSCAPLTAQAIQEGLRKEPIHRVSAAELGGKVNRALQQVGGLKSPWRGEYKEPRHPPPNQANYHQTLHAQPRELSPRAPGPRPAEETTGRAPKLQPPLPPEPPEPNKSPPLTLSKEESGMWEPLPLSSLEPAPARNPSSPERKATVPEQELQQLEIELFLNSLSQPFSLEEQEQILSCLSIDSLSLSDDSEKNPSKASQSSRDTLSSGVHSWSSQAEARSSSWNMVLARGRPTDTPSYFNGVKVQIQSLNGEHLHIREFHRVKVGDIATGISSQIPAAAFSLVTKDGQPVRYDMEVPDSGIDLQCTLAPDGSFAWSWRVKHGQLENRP
measurementDescription: Inhibition of auto-phosphorylation of recombinant human NIK/MAP3K14 (AlphaScreen)
measurementConditions: NIK auto-phosphorylation, 5 μM ATP, 1 nM NIK, 2 h at 25° C.; average of values
pIC50: −log10 of the molar value.
outcomeMeasure: pIC50

Please review the following examples before continuing.
[2H]c1nc(N)c2nc(-c3cccc(C#C[C@]4(O)CCN(C)C4=O)c3)cc(C3CCCC3)c2n1 : 9.15
Cc1nc(N)c2nc(-c3cccc(C#C[C@@](C)(O)c4nccs4)c3)ccc2n1 : 9.15

P: CN1CC[C@@](O)(C#Cc2cccc(-n3cc4c(N)ncnc4n3)c2)C1=O
Q: CN1CC[C@@](O)(C#Cc2cccc(-c3cc(C(F)(F)F)c4ncnc(N)c4n3)c2)C1=O
R: CN1CC[C@@](O)(C#Cc2cccc(-c3ccc4ncnc(NC5CCC5)c4n3)c2)C1=O
S: Cc1nc(N)c2nc(-c3cccc(C#CC4(O)CCCc5cccnc54)c3)ccc2n1 (racemic)
T: CN1CC[C@@](O)(C#Cc2cccc(-c3ncc4c(CN5CCCC5)cnc(N)c4n3)c2)C1=O
Enquiry: Ascending sort, pIC50. Give the labels in the order specified.
Return: P, S, R, T, Q

---

tgt: recombinant human NF-kappaB-inducing kinase (NIK/MAP3K14) (Homo sapiens (Human), UniProt Q99558)
measurementDescription: Inhibition of auto-phosphorylation of recombinant human NIK/MAP3K14 (AlphaScreen)
measurementConditions: NIK auto-phosphorylation, 5 μM ATP, 1 nM NIK, 2 h at 25° C.; average of values
outcomeMeasure: IC50 (nM)

Nc1ncnc2cnc(-c3cccc(C#C[C@]4(O)CCc5cccnc54)c3)nc12 : 2290

P: CN1CC[C@@](O)(C#Cc2cccc(-c3ccc4ncnc(C#N)c4n3)c2)C1=O
Q: Cc1nc(N)c2nc(-c3cccc(C#C[C@@](C)(O)c4cscn4)c3)ccc2n1
R: Cc1ccc(C#C[C@]2(O)CCN(C)C2=O)cc1N1CCc2ncnc(N)c2C1
S: CN(C)Cc1cnc(N)c2nc(-c3cccc(C#C[C@]4(O)CCN(C)C4=O)c3)ccc12
T: CN1CC[C@@](O)(C#Cc2cccc(-c3ccc4nccc(N)c4n3)c2)C1=O
Enquiry: Rank by IC50 (largest to smallest). Give the labels in the order specified.
Return: P, T, S, R, Q

I: CN1CC[C@@](O)(C#Cc2cccc(-c3ccc4ncnc(N5CCC5)c4n3)c2)C1=O
II: CN1CC[C@@](O)(C#Cc2cccc(-c3ncc4c(C(=O)Oc5ccccc5)cnc(N)c4n3)c2)C1=O
III: Cc1nc(N)c2nc(-c3cccc(C#C[C@]4(O)CCN(C)C4=O)c3)c(C)cc2n1
IV: Cc1cc(C#C[C@]2(O)CCc3cccnc32)cc(-c2ncc3ccnc(N)c3n2)c1
Enquiry: Rank by IC50 (largest to smallest). Give the labels in the order specified.
Return: III, IV, I, II
(III: 18 nM, IV: 2.5 nM, I: 1.2 nM, II: 0.6 nM)

a: CN1CC[C@@](O)(C#Cc2cccc(-c3cc(N4CC5(C4)CC5(F)F)c4ncnc(N)c4n3)c2)C1=O
b: CN1CC[C@@](O)(C#Cc2cccc(-c3ccc4c(n3)c(N)nn4C)c2)C1=O
Enquiry: Thinking about recorded IC50 values, which is higher, a or b ? // respond with label for picked entry
Return: b

---

tgt: recombinant human NF-kappaB-inducing kinase (NIK/MAP3K14) (Homo sapiens (Human))
measurementDescription: Inhibition of auto-phosphorylation of recombinant human NIK/MAP3K14 (AlphaScreen)
measurementConditions: NIK auto-phosphorylation, 5 μM ATP, 1 nM NIK, 2 h at 25° C.; average of values
pIC50: −log10 of the molar value.
outcomeMeasure: pIC50

Please review the following examples before continuing.
CN1CC[C@@](O)(C#Cc2cccc(-c3cc(N4CC(C(F)(F)F)C4)c4ncnc(N)c4n3)c2)C1=O : 8.30
CN1CC[C@@](O)(C#Cc2cccc(-c3ccc4ncnc(N5CC(O)C5)c4n3)c2)C1=O : 8.32

1: [2H]c1nc(N)c2nc(-c3cc(C#C[C@]4(O)CCN(C)C4=O)ccc3OC)ccc2n1
2: Cc1nc(N)c2nc(-c3cccc(C#C[C@](C)(O)c4nc(C(F)(F)F)cs4)c3)ccc2n1
Enquiry: Thinking about recorded pIC50 values, which is higher, 1 or 2 ? // respond with label for picked entry
Return: 1
(1: 8.62, 2: 5.63)

---

tgt: recombinant human NF-kappaB-inducing kinase (NIK/MAP3K14) (Homo sapiens (Human))
measurementDescription: Inhibition of auto-phosphorylation of recombinant human NIK/MAP3K14 (AlphaScreen)
measurementConditions: NIK auto-phosphorylation, 5 μM ATP, 1 nM NIK, 2 h at 25° C.; average of values
pIC50: −log10 of the molar value.
outcomeMeasure: pIC50

I: Nc1nccc2cnc(-c3cccc(C#CC4(O)CCc5cccnc54)c3)nc12 (stereo in doubt)
II: Cc1nc(N)c2nc(-c3cccc(C#C[C@](C)(O)c4cscn4)c3)ccc2n1
Enquiry: Thinking about recorded pIC50 values, which is higher, I or II ? // respond with label for picked entry
Return: II

I: Cc1nnc([C@](C)(O)C#Cc2cccc(-c3ncc4ccnc(N)c4n3)c2)o1
II: Cc1nc(N)c2nc(-c3cccc(C#C[C@]4(O)C[C@@H](C)N(C)C4=O)c3)ccc2n1
III: [2H]C([2H])([2H])N1CC[C@@](O)(C#Cc2ccc(C)c(-c3ccc4ccnc(N)c4c3)c2)C1=O (single isomer, unassigned) [Example 71]
IV: CN1CC[C@@](O)(C#Cc2cccc(-c3ccc4c(c3)c(N)nn4C(=O)OC(C)(C)C)c2)C1=O
Enquiry: Ascending sort, pIC50. Give the labels in the order specified.
Return: III, IV, II, I
(III: 5.37, IV: 5.92, II: 8.72, I: 9.05)

---

tgt: recombinant human NF-kappaB-inducing kinase (NIK/MAP3K14) (Homo sapiens (Human))
measurementDescription: Inhibition of auto-phosphorylation of recombinant human NIK/MAP3K14 (AlphaScreen)
Type: biochemical
measurementConditions: NIK auto-phosphorylation, 5 μM ATP, 1 nM NIK, 2 h at 25° C.; average of values
outcomeMeasure: IC50 (nM)

Please review the following examples before continuing.
CN1CC[C@@](O)(C#Cc2cccc(-c3ccc4[nH]nc(N)c4n3)c2)C1=O : 4.3
[2H]c1nc(N)c2nc(-c3cc(C#C[C@]4(O)CCN(C)C4=O)ccc3OC(F)(F)F)ccc2n1 : 4.1

I: Cc1nc(-c2cccc(C#C[C@]3(O)CCN(C)C3=O)c2)nc2c(N)ncnc12
II: CN1CC[C@@](O)(C#Cc2cccc(N3CCCc4ncnc(N)c4C3)c2)C1=O
Enquiry: Thinking about recorded IC50 values, which is higher, I or II ? // respond with label for picked entry
Return: II
(II: 250 nM, I: 0.8 nM)

I: [2H]c1nc(N)c2nc(-c3cccc(C#CC4(O)CCN(CC=C)C4=O)c3)ccc2n1 (racemic)
II: CN1CC[C@@](O)(C#Cc2cccc(-c3ccc4nccc(N5CCC5)c4c3)c2)C1=O
III: Cc1nnc([C@](C)(O)C#Cc2ccc(C)c(-c3ncc4ccnc(N)c4n3)c2)o1
IV: CN1CC[C@@](O)(C#Cc2cccc(-c3cc(OC(F)F)c4ncnc(N)c4n3)c2)C1=O
V: Cc1csc([C@](C)(O)C#Cc2cccc(-c3ccc4nc(C)nc(N)c4n3)c2)n1
Enquiry: Ascending sort, IC50. Give the labels in the order specified.
Return: IV, I, III, V, II
(IV: 1.7 nM, I: 4.4 nM, III: 56 nM, V: 410 nM, II: 2950 nM)

---

tgt: recombinant human NF-kappaB-inducing kinase (NIK/MAP3K14) (Homo sapiens (Human), UniProt Q99558)
measurementDescription: Inhibition of auto-phosphorylation of recombinant human NIK/MAP3K14 (AlphaScreen)
measurementConditions: NIK auto-phosphorylation, 5 μM ATP, 1 nM NIK, 2 h at 25° C.; average of values
outcomeMeasure: IC50 (nM)

Cc1nc(-c2cccc(C#C[C@]3(O)CCc4cccnc43)c2)nc2c(N)nccc12 : 0.8

a: Cc1nc(N)c2nc(-c3cccc(C#C[C@]4(O)C[C@H](C)N(C)C4=O)c3)ccc2n1
b: Cc1nc(N)c2nc(-c3cccc(C#C[C@@]4(O)C[C@H](C)N(C)C4=O)c3)ccc2n1
Enquiry: Thinking about recorded IC50 values, which is higher, a or b ? // respond with label for picked entry
Return: b
(b: 680 nM, a: 65 nM)
